- ASSAY SUMMARY: Metabolic stability in mouse plasma assessed as compound remaining at 1 ug/ml after 4 hrs
- Assay type: ADME, cell-free
- REPORTED CONDITIONS: read-out: Stability
For each entry below, report its remaining at 4 h, 1 ug/ml value.
I only need the number, in %, no unit after it.

INPUT: Using known records, supply remaining at 4 h, 1 ug/ml for CC(OC(=O)[C@H](C)NP(=O)(OC[C@H]1O[C@@H](n2cnc3c(=O)[nH]c(N)nc32)[C@](C)(O)[C@@H]1O)Oc1cccc2ccccc12)c1ccccc1 (mixture of isomers)
OUTPUT: 0

INPUT: Using known records, supply remaining at 4 h, 1 ug/ml for CCCCCOC(=O)[C@H](C)NP(=O)(OC[C@H]1O[C@@H](n2cnc3c(=O)[nH]c(N)nc32)[C@](C)(O)[C@@H]1O)Oc1cccc2ccccc12 (stereo partly drawn)
OUTPUT: 0

INPUT: Using known records, supply remaining at 4 h, 1 ug/ml for CC(C)(NP(=O)(OC[C@H]1O[C@@H](n2cnc3c(=O)[nH]c(N)nc32)[C@](C)(O)[C@@H]1O)Oc1cccc2ccccc12)C(=O)OCc1ccccc1 (stereo partly drawn)
OUTPUT: 0

INPUT: Using known records, supply remaining at 4 h, 1 ug/ml for CC(C)[C@H](NP(=O)(OC[C@H]1O[C@@H](n2cnc3c(=O)[nH]c(N)nc32)[C@](C)(O)[C@@H]1O)Oc1cccc2ccccc12)C(=O)OCc1ccccc1 (stereo partly drawn)
OUTPUT: 66

INPUT: Using known records, supply remaining at 4 h, 1 ug/ml for CC(C)[C@H](NP(=O)(OC[C@H]1O[C@@H](n2cnc3c(=O)[nH]c(N)nc32)[C@](C)(O)[C@@H]1O)Oc1ccc2ccccc2c1)C(=O)OCc1ccccc1 (stereo partly drawn)
OUTPUT: 76

INPUT: Using known records, supply remaining at 4 h, 1 ug/ml for C[C@H](NP(=O)(OC[C@H]1O[C@@H](n2cnc3c(=O)[nH]c(N)nc32)[C@](C)(O)[C@@H]1O)Oc1cccc2ccccc12)C(=O)O[C@@H](C)c1ccccc1 (stereo partly drawn)
OUTPUT: 0

INPUT: Using known records, supply remaining at 4 h, 1 ug/ml for C[C@H](NP(=O)(OC[C@H]1O[C@@H](n2cnc3c(=O)[nH]c(N)nc32)[C@](C)(O)[C@@H]1O)Oc1cccc2ccccc12)C(=O)OC1CCCCC1 (stereo partly drawn)
OUTPUT: 0

INPUT: Using known records, supply remaining at 4 h, 1 ug/ml for CSCC[C@H](NP(=O)(OC[C@H]1O[C@@H](n2cnc3c(=O)[nH]c(N)nc32)[C@](C)(O)[C@@H]1O)Oc1cccc2ccccc12)C(=O)OC(C)C (stereo partly drawn)
OUTPUT: 32
